Test system: NCI-H226 lung
Experiment: NCI-60 one-dose screen, 48 h (100 = growth as untreated, 0 = no growth, -100 = all killed)
Details: 10 µM unless noted
This is part of a sample that, as a whole, favours compounds with a hit. Of some 83,000 tested, about 20% had one in any assay.
Catalogue of growth readings, one per entry.
// note: answer is a bare numeric in %

N#C/C(=C\c1ccccn1)c1nc2cc(Cl)ccc2s1 :: 67.9
COc1ccc(CNCCN2C(=O)c3ccc4c5c(ccc(c35)C2=O)C(=O)N(CCNCc2ccc(OC)c(OC)c2OC)C4=O)c(OC)c1OC :: -13.7
C=C1C(=O)O[C@H]2[C@H]1CC/C(CNS(=O)(=O)c1cccc3ccccc13)=C\CC[C@@]1(C)O[C@@H]21 :: 57.8
C=C1C(=O)O[C@H]2[C@H]1CC/C(CNC(=O)CCc1ccc(OC)cc1)=C\CC[C@@]1(C)O[C@@H]21 :: 89.9
C/C(=N\NC(=O)CSc1nc2ccccc2c(=O)n1Cc1ccc(S(N)(=O)=O)cc1)c1ccc(F)cc1 :: 102
O=S(=O)(NCCNc1nccc(-c2c(-c3cccc(O)c3)nc3occn23)n1)c1ccc(C(F)(F)F)cc1 :: 106
S=c1cc(S)c2cc(Br)ccc2[nH]1 :: 83.9
CC(C)N1C(=O)S/C(=C2/SC(=O)N(C(C)C)C2=O)C1=O :: 102

Answer with reported growth of `CCN(CC)c1ccc(C(=O)c2ccccc2)cc1`
87.9

Answer with reported growth of `OCc1cnc2ccccc2c1NC1CCCCCC1`
80.4

Answer with reported growth of `CN1C(N2CCN(S(=O)(=O)c3ccccc3)CC2)=NS(=O)(=O)c2ccccc21`
112

Answer with reported growth of `COc1ccc(C(=O)CC#N)cc1`
98

Answer with reported growth of CCOC(=O)CC1CSC(N/N=C/c2ccc(-n3cccn3)cc2)=N1 (centres undefined)
95

Answer with reported growth of `CCNC(=O)Oc1ccc(/C(=C(\C)c2ccccc2)c2ccc(OCCN(CC)CC)cc2)cc1`
95.6

Answer with reported growth of `O=C(NNc1nc2c(F)cccc2n2cccc12)c1cnccn1`
31.7

Answer with reported growth of COc1cc(NC(C)CCCNC(=O)CCC(=O)NCCCNCCCCCCCCNCCCNC(=O)CCC(=O)NCCCC(C)Nc2cc(OC)cc3cccnc23)c2ncccc2c1 (centres undefined)
44.5
